testedTarget: CDK5 (Homo sapiens (Human))
Sequence (Q00535 whole entry): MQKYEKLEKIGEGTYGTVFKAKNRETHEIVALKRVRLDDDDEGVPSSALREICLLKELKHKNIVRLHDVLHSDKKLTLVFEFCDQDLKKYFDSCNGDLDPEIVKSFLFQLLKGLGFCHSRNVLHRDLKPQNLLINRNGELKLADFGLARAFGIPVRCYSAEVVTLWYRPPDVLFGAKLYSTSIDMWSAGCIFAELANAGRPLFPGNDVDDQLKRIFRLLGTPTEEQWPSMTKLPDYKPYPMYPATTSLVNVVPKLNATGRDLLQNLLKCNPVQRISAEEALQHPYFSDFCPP
assayComment: KiNativ assay
Format: binding
cond: H929 live cell, read-out: inhibition (10 μM)
observationType: inhibition at 10 µM (%)
The figure you give is taken to be in %; do not add the unit.

Task: Quick one: inhibition at 10 µM of Nc1ncc(-c2ccc(NS(=O)(=O)C3CC3)cc2F)cc1-c1ccc2c(c1)CCNC2=O ?
Result: 37.2

Task: Quick one: inhibition at 10 µM of Nc1ncc(-c2cccc3ncsc23)cc1-c1ccc2c(c1)CCNC2=O ?
Result: 20

Task: Quick one: inhibition at 10 µM of CN(C1CC1)S(=O)(=O)c1ccc(-c2cnc(N)c(-c3ccc4c(c3)CCNC4=O)c2)c(F)c1 ?
Result: 17

Task: Quick one: inhibition at 10 µM of COc1cc(NS(=O)(=O)C2CC2)ccc1-c1cnc(N)c(-c2ccc3c(c2)CCNC3=O)c1 ?
Result: 11.3

Task: Quick one: inhibition at 10 µM of Nc1ncc(-c2cccc([N+](=O)[O-])c2F)cc1-c1ccc2c(c1)CCNC2=O ?
Result: 78.7

Task: Quick one: inhibition at 10 µM of Nc1ncc(-c2ccc(NS(=O)(=O)C3CC3)cc2OC2CCCCC2)cc1-c1ccc2c(c1)CCNC2=O ?
Result: 4.9

----------
testedTarget: BARK1 (Homo sapiens (Human))
Sequence (P25098 whole entry): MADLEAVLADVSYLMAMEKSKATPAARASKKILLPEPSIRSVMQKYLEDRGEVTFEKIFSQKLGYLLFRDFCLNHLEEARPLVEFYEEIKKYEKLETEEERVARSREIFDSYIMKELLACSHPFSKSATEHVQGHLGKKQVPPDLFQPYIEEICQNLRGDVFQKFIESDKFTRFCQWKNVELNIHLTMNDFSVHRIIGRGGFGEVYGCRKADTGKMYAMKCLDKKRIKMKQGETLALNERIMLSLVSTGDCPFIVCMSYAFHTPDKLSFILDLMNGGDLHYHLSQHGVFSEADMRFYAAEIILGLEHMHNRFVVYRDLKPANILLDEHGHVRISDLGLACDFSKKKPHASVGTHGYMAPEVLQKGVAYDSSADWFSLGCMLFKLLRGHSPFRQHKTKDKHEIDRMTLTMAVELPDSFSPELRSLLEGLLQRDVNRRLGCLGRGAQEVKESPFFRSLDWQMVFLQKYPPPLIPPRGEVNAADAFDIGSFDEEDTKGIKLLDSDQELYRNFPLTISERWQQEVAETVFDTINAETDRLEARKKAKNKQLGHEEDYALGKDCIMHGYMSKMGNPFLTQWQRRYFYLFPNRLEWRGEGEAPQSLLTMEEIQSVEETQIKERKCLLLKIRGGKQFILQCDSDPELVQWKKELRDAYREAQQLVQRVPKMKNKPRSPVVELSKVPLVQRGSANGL
assayComment: KiNativ assay
Type: binding
cond: H929 live cell, read-out: inhibition (10 μM)
Please go through the items and note down their inhibition at 10 µM.
The figure you give is taken to be in %; do not add the unit.

Task: Quick one: inhibition at 10 µM of Nc1ncc(-c2ccc(NS(=O)(=O)C3CC3)cc2OC2CCCCC2)cc1-c1ccc2c(c1)CCNC2=O ?
Result: 3.9

Task: Quick one: inhibition at 10 µM of CN(C1CC1)S(=O)(=O)c1ccc(-c2cnc(N)c(-c3ccc4c(c3)CCNC4=O)c2)c(F)c1 ?
Result: 22.3

Task: Quick one: inhibition at 10 µM of Nc1ncc(-c2cccc([N+](=O)[O-])c2F)cc1-c1ccc2c(c1)CCNC2=O ?
Result: 2.8

Task: Quick one: inhibition at 10 µM of Nc1ncc(-c2ccc(NS(=O)(=O)C3CC3)cc2F)cc1-c1ccc2c(c1)CCNC2=O ?
Result: -5.1

Task: Quick one: inhibition at 10 µM of COc1cc(NS(=O)(=O)C2CC2)ccc1-c1cnc(N)c(-c2ccc3c(c2)CCNC3=O)c1 ?
Result: -19.4

Task: Quick one: inhibition at 10 µM of Nc1ncc(-c2cccc3ncsc23)cc1-c1ccc2c(c1)CCNC2=O ?
Result: 21.8

----------
testedTarget: UniProtKB Q96RR4
Sequence (Q96RR4 whole entry): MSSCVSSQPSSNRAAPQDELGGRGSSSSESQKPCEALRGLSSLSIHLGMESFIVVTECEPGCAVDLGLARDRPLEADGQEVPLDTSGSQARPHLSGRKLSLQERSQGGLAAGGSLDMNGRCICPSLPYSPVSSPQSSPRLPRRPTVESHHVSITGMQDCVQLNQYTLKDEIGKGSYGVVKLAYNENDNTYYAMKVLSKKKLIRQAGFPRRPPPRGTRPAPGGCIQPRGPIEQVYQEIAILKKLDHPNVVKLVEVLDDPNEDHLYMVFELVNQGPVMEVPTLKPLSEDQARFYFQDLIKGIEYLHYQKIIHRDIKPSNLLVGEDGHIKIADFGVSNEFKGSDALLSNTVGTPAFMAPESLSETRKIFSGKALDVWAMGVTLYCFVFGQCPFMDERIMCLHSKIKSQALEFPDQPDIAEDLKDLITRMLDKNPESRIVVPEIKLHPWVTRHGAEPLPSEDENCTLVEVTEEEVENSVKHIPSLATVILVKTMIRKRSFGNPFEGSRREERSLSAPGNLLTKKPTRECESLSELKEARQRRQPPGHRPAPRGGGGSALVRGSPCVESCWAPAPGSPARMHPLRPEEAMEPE
assayComment: KiNativ assay
Assay type: binding
cond: H929 live cell, read-out: inhibition (10 μM)
observationType: inhibition at 10 µM (%)
The figure you give is taken to be in %; do not add the unit.

Task: Quick one: inhibition at 10 µM of Nc1ncc(-c2cccc([N+](=O)[O-])c2F)cc1-c1ccc2c(c1)CCNC2=O ?
Result: 71.8

Task: Quick one: inhibition at 10 µM of Nc1ncc(-c2ccc(NS(=O)(=O)C3CC3)cc2OC2CCCCC2)cc1-c1ccc2c(c1)CCNC2=O ?
Result: 85.6

Task: Quick one: inhibition at 10 µM of Nc1ncc(-c2cccc3ncsc23)cc1-c1ccc2c(c1)CCNC2=O ?
Result: 74.9

Task: Quick one: inhibition at 10 µM of Nc1ncc(-c2ccc(NS(=O)(=O)C3CC3)cc2F)cc1-c1ccc2c(c1)CCNC2=O ?
Result: 78.5

Task: Quick one: inhibition at 10 µM of COc1cc(NS(=O)(=O)C2CC2)ccc1-c1cnc(N)c(-c2ccc3c(c2)CCNC3=O)c1 ?
Result: 88.3

Task: Quick one: inhibition at 10 µM of CN(C1CC1)S(=O)(=O)c1ccc(-c2cnc(N)c(-c3ccc4c(c3)CCNC4=O)c2)c(F)c1 ?
Result: 57
